# Test system: ABIL (ammonia-binding liquid inoculum), nitrifying microbial enrichment containing both AOA and AOB
# protocolText: Nitrification inhibition assay on ABIL (ammonium consumption)
# Assay type: cell-based
# assaySetup: 10 µM compound; structural variants outside formula (I); read-out: Relative nitrification (%) by ABIL treated with 10 µM compound
measuredQuantity: activity at 10 µM (%)
Answer format: numeric, % implied, no suffix.

Prompt line: # lookup: activity at 10 µM of `C=CCNC(=O)c1cnc2c(cnn2C(C)C)c1`
Response line: 100

Prompt line: What measured activity at 10 µM goes with CCC(C)n1ncc2c(C(=O)O)cc(C3CC3)nc21 (centres unmarked) ?
Response line: 94

Prompt line: Could you share which activity at 10 µM value was measured for `c1csc(Cn2ncc3ccc(-c4ccc5c(c4)OCO5)nc32)c1` ?
Response line: 91

Prompt line: Which measured activity at 10 µM value corresponds to `CCNC(=O)c1cccc(NC(=O)c2n[nH]c3ccccc23)c1` ?
Response line: 100

Prompt line: Entry under review: `CC(C)n1ncc2cc(C(=O)N(C)Cc3nc4ccccc4s3)cnc21` . Reported activity at 10 µM?
Response line: 100

Source of measurements: patent US20230357099A1
